B1: CPEB3 Ribozyme (parent)
chain: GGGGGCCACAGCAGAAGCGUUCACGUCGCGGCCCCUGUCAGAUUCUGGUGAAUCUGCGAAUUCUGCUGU

Variants of: B1
Assay: self-cleavage, relative activity (ratio to wild type); higher = more cleavage; co-transcriptional
Measured parameter: self-cleavage
Give bare numbers.

C6A U61A :: 0.217

I would be grateful if you could provide self-cleavage for each of the following entries.
1. G17A A60C
2. C18A G65C
3. C18U G58C

Response line:
0.189
0.217
0.852

Each variant below has a reported value. Please supply its self-cleavage.
1. A23G U46A
2. A15U U44C
3. G17A U20A
4. G41A C54A
5. C6U U62C

Response line:
1. 1.01
2. 0.516
3. 0.0639
4. 0.904
5. 0.811

// batch mode: one self-cleavage value per listed entry
1. C22A A23U
2. C7A A16G
3. G47C U69G
4. U43C U55G
5. C12U A51C
6. G11C U64G
7. C24U C32U
8. C34A U67G

Response line:
[0.281, 0.383, 1.06, 0.388, 0.977, 0.435, 0.805, 0.903]
